Assay: Chemical stability of the compound in buffer assessed as compound remaining at pH 4 after 1 hr by HPLC analysis
Type: physicochemical
Settings: read-out: Stability
readout_type: remaining at 1 h (%)
Report the figure in % without appending any unit label.

Request: I would be grateful if you could share the reported remaining at 1 h for CC(C)[C@]12O[C@H]1[C@@H]1O[C@]13[C@]1(O[C@H]1C[C@H]1C4=C(CC[C@@]13C)C(=O)OC4)[C@@H]2OCOP(=O)([O-])[O-].[Na+].[Na+] [MINNELIDE] .
Response: 100

###

Experiment: Stability of the compound in simulated intestinal fluid assessed as compound remaining at pH 7.5 after 24 hrs by HPLC analysis
Assay type: ADME
Details: read-out: Stability
readout_type: remaining at 24 h (%)
Report the figure in % without appending any unit label.

Request: I would be grateful if you could share the reported remaining at 24 h for CC(C)[C@]12O[C@H]1[C@@H]1O[C@]13[C@]1(O[C@H]1C[C@H]1C4=C(CC[C@@]13C)C(=O)OC4)[C@@H]2OCOP(=O)([O-])[O-].[Na+].[Na+] [MINNELIDE] .
Response: 99
